system: Gal(a1-6)Glc
experimental_protocol: glycan array binding signal (z-score within array); higher = stronger binding
cond: glycan notation: IUPAC condensed, linker removed
The sample as a whole holds a higher share of the strongest signals than the screen did.
A collection of binders and their measured glycan array binding signal (z-score)

Example entries and their recorded answers appear below.
* CD23 (Homo sapiens) (protein) MELQVSSGFVCNTCPEKWINFQRKCYYFGKGTKQWVHARYACDDMEGQLVSIHSPEEQDFLTKHASHTGSWIGLRNLDLKGEFIWVDGSHVDYSNWAPGEPTSRSQGEDCVMMRGSGRWNDAFCDRKLGAWVCDRLATCTPPASEGSAESMGPDSRPDPDGRLPTPSAPLHS | 0.204
* Tap1 (Sordaria macrospora), Q50IV4 (protein) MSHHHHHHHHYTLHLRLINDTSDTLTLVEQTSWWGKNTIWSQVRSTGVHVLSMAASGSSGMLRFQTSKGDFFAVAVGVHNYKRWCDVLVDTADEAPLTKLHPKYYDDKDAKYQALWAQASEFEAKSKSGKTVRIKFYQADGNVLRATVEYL | -0.248
* CLC (Homo sapiens), Q9UBD9 (protein) MDLRAGDSWGMLACLCTVLWHLPAVPALNRTGDPGPGPSIQKTYDLTRYLEHQLRSLAGTYLNYLGPPFNEPDFNPPRLGAETLPRATVDLEVWRSLNDKLRLTQNYEAYSHLLCYLRGLNRQAATAELRRSLAHFCTSLQGLLGSIAGVMAALGYPLPQPLPGTEPTWTPGPAHSDFLQKMDDFWLLKELQTWLWRSAKDFNRLKKKMQPPAAAVTLHLGAHGF | -0.312

Field: next binder
input: I would be grateful if you could share the reported glycan array binding signal (z-score) for Surfactant Protein D (Human); Neck + Carbohydrate Recognition Domain (NCRD) (Homo sapiens) (protein) MLLFLLSALVLLTQPLGYLEAEMKTYSHRTMPSACTLVMCSSVESGLPGRDRDGREGPRGEKGDPGLPGAAGQAGMPGQAGPVGPKGDNGSVGEPGPKGDTGPSGPPGPPGVPGPAGREGALGKQGNIGPQGKPGPKGEAGPKGEVGAPGMQGSAGARGLAGPKGERGVPGERGVPGNTGAAGSAGAMGPQGSPGARGPPGLKGDKGIPGDKGAKGESGLPDVASLRQQVEALQGQVQHLQAAFSQYKKVELFPNGQSVGEKIFKTAQFVKPFTEAQLLCTQAGGQLASPRSAAENAALQQLVVAKNEAAFLSMTDSKTEGKFTYPTGESLVYSNWAPGEPNDDGGSEDCVEIFTNGKWNDRACGEKRLVVCEF .
output: -0.083
